# test-description: chemical genetic growth profiling, strain panel (AID 1159580);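 also: tested at 20 µM; growth read once vehicle control cultures reached saturation at 30 °C; 1 = growth at the plate median or of vehicle wells; lower values mean less growth of the strain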
# assay-setup: S. cerevisiae deletion strains, growth OD, locus YPL031C, strain PHO85
Screen size: about 5,500 compounds; about 2,000 (36%) were called active. Not shown: some 18% with an inconclusive outcome. Rule as the data show it: active = normalized growth mostly below about 0.91 (no sharp cut-off); inconclusive = no clear call, values can overlap the other calls; inactive = mostly above about 0.92. Some of the results follow.
Respond with a class label; see 1.0 for active, 0.0 for inactive

Reference set, count: 6
O=[N+]([O-])/C=C/c1ccsc1 | 1.0
Fc1cccc(F)c1NC(=S)Nc1cc(C(F)(F)F)cc(C(F)(F)F)c1 | 0.0
CCCc1c(C(=O)Sc2ccccn2)cnn1-c1ccc(Cl)cc1 | 0.0
O=C(c1ccc2ccccc2c1)N1CCN(c2ccnc3cc(Cl)ccc23)CC1 | 0.0
O=C(Nc1ccc(C(F)(F)F)cc1)N1CCN(c2ccnc3cc(Cl)ccc23)CC1 | 0.0
OC(CNCc1ccc(Cl)cc1)CO/N=C\C1=C(Cl)c2cc(Cl)ccc2OC1 (stereo unspecified) | 0.0

Please share the test call associated with CCCc1c(C(=O)NNc2cccc(Cl)c2)cnn1-c1ccccc1 . 0.0

Dear all, I need the recorded test outcome for O=[N+]([O-])c1cc(Br)cnc1Sc1nnc(SCC2CC2)s1 , thank you. 1.0

Hi, sorry to bother you, what did the test record for C=CCOc1ccc(/C=C/[N+](=O)[O-])cc1 ? 1.0

Look up the recorded call for CC(=O)Nc1ccc(/C=C/[N+](=O)[O-])cc1 in this test. 0.0

Outcome logged for O=S(=O)(N/N=C\c1ccc(Cl)cc1)c1ccc(-c2ccccn2)s1 in this assay: 0.0

----------
The following compounds are shown together with reported normalized growth values.
# test-description: chemical genetic growth profiling, strain panel (AID 1159580);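 also: tested at 20 µM; growth read once vehicle control cultures reached saturation at 30 °C; 1 = growth at the plate median or of vehicle wells; lower values mean less growth of the strain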
# assay-setup: S. cerevisiae deletion strains, growth OD, locus YIR030C, strain dcg1, hits give low values
Out of some 5,500 compounds screened, about 2,000 (36%) were called active. About 18% were inconclusive and are not listed. The list shows a part of the results.
A bare number is all that is needed in reply.

These solved cases illustrate the format of a correct answer.
COc1c2c(cc3c1OCO3)CCN(C)C2 | 0.997
COC(C)(C)CCC[C@H](C)C/C=C/C(C)=C/C(=O)OC(C)C | 1.03
Cc1ccsc1/C=C/C1=NCCCN1C | 0.976
CC(=O)Nc1cc([As](=O)(O)O)ccc1O | 0.992
O=[N+]([O-])c1cc(O)c(O)c([N+](=O)[O-])c1 | 0.976
CCCCC(CC)CN1CN(CC(CC)CCCC)CC(C)(N)C1 (configuration not stated) | 0.651
CC(=O)O[C@@H]1C[C@@]2(C)[C@H](c3ccoc3)C[C@H]3O[C@]32[C@]2(C)C(=O)C(O)=C3C(C)(C)C(=O)C=C[C@]3(C)C12 (some centres not stated) | 0.959
O=C(O)c1ccccc1Nc1cccc(C(F)(F)F)c1 | 0.965
OC[C@@H]1CCCN2CCCC[C@H]12 | 1.01
COc1cc2c(c(OC)c1OC)-c1ccc(O)c(=O)cc1[C@@H](NC(C)=O)CC2 | 0.988

For NC[C@H](O)c1ccc(O)c(O)c1 , what is its reported normalized growth? 1.02

normalized growth lookup needed for Nc1nc2ncc(C(=O)O)nc2c(=O)[nH]1 , thanks. 1.04

What does the data say about its normalized growth? Entry: O=C(O[C@@H]1Cc2c(O)cc(O)cc2O[C@@H]1c1cc(O)c(O)c(O)c1-c1c([C@H]2Oc3cc(O)cc(O)c3C[C@H]2O)cc(O)c(O)c1O)c1cc(O)c(O)c(O)c1 0.863
